system under test: TlpAY228A (Helicobacter pylori, UniProt O24925, Y228A)
test summary: biochemical
Structures can show the parent of a compound that is named as a salt.
Provide the reported Kd of each item.
Number in µM, nothing else.

Note to self: Kd of N=C(N)NCCC[C@H](N)C(=O)O [Arginine, L-arginine monohydrochloride] with TlpAY228A (Helicobacter pylori, UniProt O24925, Y228A) was 8.3

Note to self: Kd of Cc1ncc(C[n+]2csc(CCO)c2C)c(N)n1 [Thiamine, thiamine hydrochloride] with TlpAY228A (Helicobacter pylori, UniProt O24925, Y228A) was 29.5

Note to self: Kd of N[C@@H](CS)C(=O)O [Cysteine, L-cysteine hydrochloride monohydrate] with TlpAY228A (Helicobacter pylori, UniProt O24925, Y228A) was 15.7

Note to self: Kd of O=C(O)C[C@H](O)C(=O)O [Malic acid, L-malic acid] with TlpAY228A (Helicobacter pylori, UniProt O24925, Y228A) was 28.6

Note to self: Kd of O=C(O)/C=C/C(=O)O [Fumarate, sodium fumarate] with TlpAY228A (Helicobacter pylori, UniProt O24925, Y228A) was 46.6

---

system under test: TlpAY228A (Helicobacter pylori, UniProt O24925, Y228A)
test summary: biochemical
measurement context: read-out: Mean binding affinity ± SD, TlpAY228A; SPR; membrane-proximal mutant; n = 3
Where a name gives a salt, the structure may show the parent alone.
observable: pKd
Keep in mind that pKd stands for -log10 of concentration in molar terms.

Documented pKd of N[C@H]1C(O)O[C@H](CO)[C@@H](O)[C@@H]1O (stereo partly drawn) [Glucosamine, D(+)-glucosamine hydrochloride] : 4.77

---

system under test: TlpALBD (TlpAWT) (Helicobacter pylori)
test summary: biochemical
measurement context: dissociation constant [Kd], SPR; WT TlpALBD
Text: The periplasmic portion of TlpA (TlpALBD), amino acids 28 to 299, from Helicobacter pylori SS1 was cloned into a pBH4 expression vector (pBH4_TlpALBD) to generate an N-terminal 6×His-tagged construct, with a tobacco etch virus (TEV) protease site, under the control of isopropyl-β-D-thiogalactopyranoside (IPTG) ([19]). […] TlpALBD and all point mutants were purified as described previously by Sweeney et al. ([19]). […]
Counter-ions that a name gives are not always drawn.
observable: Kd

Note to self: Kd of Cc1ncc(C[n+]2csc(CCO)c2C)c(N)n1 [Thiamine, thiamine hydrochloride] with TlpALBD (TlpAWT) (Helicobacter pylori) was > 45 µM

Note to self: Kd of O=C(O)/C=C/C(=O)O [Fumarate, sodium fumarate] with TlpALBD (TlpAWT) (Helicobacter pylori) was < 10 µM

Note to self: Kd of N[C@@H](CS)C(=O)O [Cysteine, L-cysteine hydrochloride monohydrate] with TlpALBD (TlpAWT) (Helicobacter pylori) was < 10 µM

Note to self: Kd of N[C@H]1C(O)O[C@H](CO)[C@@H](O)[C@@H]1O (stereo partly drawn) [Glucosamine, D(+)-glucosamine hydrochloride] with TlpALBD (TlpAWT) (Helicobacter pylori) was < 10 µM

Note to self: Kd of N=C(N)NCCC[C@H](N)C(=O)O [Arginine, L-arginine monohydrochloride] with TlpALBD (TlpAWT) (Helicobacter pylori) was < 10 µM

Note to self: Kd of O=C(O)C[C@H](O)C(=O)O with TlpALBD (TlpAWT) (Helicobacter pylori) was > 45 µM

---

system under test: TlpAM183A (Helicobacter pylori, UniProt O24925, M183A)
test summary: biochemical
Counter-ions that a name gives are not always drawn.
Provide the reported Kd of each item.
Number in µM, nothing else.

Documented Kd of N[C@H]1C(O)O[C@H](CO)[C@@H](O)[C@@H]1O (stereo partly drawn) [Glucosamine, D(+)-glucosamine hydrochloride] : 94.6

Documented Kd of O=C(O)C[C@H](O)C(=O)O : 33.6

Documented Kd of Cc1ncc(C[n+]2csc(CCO)c2C)c(N)n1 [Thiamine, thiamine hydrochloride] : 18.1

Documented Kd of N[C@@H](CS)C(=O)O [Cysteine, L-cysteine hydrochloride monohydrate] : 36.1

Documented Kd of N=C(N)NCCC[C@H](N)C(=O)O [Arginine, L-arginine monohydrochloride] : 22.3

Documented Kd of O=C(O)/C=C/C(=O)O [Fumarate, sodium fumarate] : 106

---

system under test: TlpAY252A (Helicobacter pylori, UniProt O24925, Y252A)
Sequence (O24925 28-299 Y252A): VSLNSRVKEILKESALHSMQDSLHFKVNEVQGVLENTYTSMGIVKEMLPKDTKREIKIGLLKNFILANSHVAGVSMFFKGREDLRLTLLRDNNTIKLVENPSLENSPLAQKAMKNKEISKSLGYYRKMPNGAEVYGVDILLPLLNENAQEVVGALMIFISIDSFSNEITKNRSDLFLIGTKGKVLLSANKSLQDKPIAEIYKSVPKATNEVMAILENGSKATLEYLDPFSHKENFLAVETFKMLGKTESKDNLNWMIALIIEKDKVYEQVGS
test summary: biochemical
From the text: The periplasmic portion of TlpA (TlpALBD), amino acids 28 to 299, from Helicobacter pylori SS1 was cloned into a pBH4 expression vector (pBH4_TlpALBD) to generate an N-terminal 6×His-tagged construct, with a tobacco etch virus (TEV) protease site, under the control of isopropyl-β-D-thiogalactopyranoside (IPTG) ([19]). […] TlpALBD and all point mutants were purified as described previously by Sweeney et al. ([19]). […]
pKd: −log10 of the molar value. Counter-ions that a name gives are not always drawn.
Decision: pKd >= 5 yields t, all other cases yield f.

# bool: pKd of N[C@@H](CS)C(=O)O [Cysteine, L-cysteine hydrochloride monohydrate] >= 5
t

# bool: pKd of N[C@H]1C(O)O[C@H](CO)[C@@H](O)[C@@H]1O (stereo partly drawn) [Glucosamine, D(+)-glucosamine hydrochloride] >= 5
t

# bool: pKd of O=C(O)C[C@H](O)C(=O)O >= 5
f

# bool: pKd of Cc1ncc(C[n+]2csc(CCO)c2C)c(N)n1 [Thiamine, thiamine hydrochloride] >= 5
f

# bool: pKd of N=C(N)NCCC[C@H](N)C(=O)O [Arginine, L-arginine monohydrochloride] >= 5
t

---

Test system: TlpALBD
test summary: Small-molecule ligand binding array; further: key: + for positive binding; +/− for intermediate binding; − for no binding
Parameters: species or system Helicobacter pylori SS1
measurement context: ligand binding array screen; n = 3
Structures can show the parent of a compound that is named as a salt.
observable: Array result

Previously resolved entries follow.
compound	Array result
Cc1ncc(C[n+]2csc(CCO)c2C)c(N)n1 [Thiamine, thiamine hydrochloride]	+/−
O=C(O)/C=C/C(=O)O [Fumarate, sodium fumarate]	+
O=C(O)CCC(=O)C(=O)O [α-Ketoglutarate, α-ketoglutaric acid]	+
N[C@H]1C(O)O[C@H](CO)[C@@H](O)[C@@H]1O (stereo partly drawn) [Glucosamine, D(+)-glucosamine hydrochloride]	+
N=C(N)NCCC[C@H](N)C(=O)O [Arginine, L-arginine monohydrochloride]	+

Documented Array result of N[C@@H](CS)C(=O)O [Cysteine, L-cysteine hydrochloride monohydrate] : +/−

Documented Array result of O=C(O)C[C@H](O)C(=O)O [Malic acid, L-malic acid] : +/−

---

system under test: TlpALBD (TlpAWT) (Helicobacter pylori, UniProt O24925)
Sequence (O24925 28-299): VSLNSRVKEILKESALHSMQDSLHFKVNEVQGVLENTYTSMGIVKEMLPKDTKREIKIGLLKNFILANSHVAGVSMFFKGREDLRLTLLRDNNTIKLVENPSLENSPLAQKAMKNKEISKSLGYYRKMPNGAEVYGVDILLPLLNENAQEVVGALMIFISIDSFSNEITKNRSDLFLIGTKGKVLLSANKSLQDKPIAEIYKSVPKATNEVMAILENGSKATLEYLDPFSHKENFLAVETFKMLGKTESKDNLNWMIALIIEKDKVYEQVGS
test summary: biochemical
measurement context: Mean binding affinity ± SD, SPR; Table 1; n = 3
Structures can show the parent of a compound that is named as a salt.
observable: pKd
Keep in mind that pKd stands for -log10 of concentration in molar terms.

Documented pKd of Cc1ncc(C[n+]2csc(CCO)c2C)c(N)n1 [Thiamine, thiamine hydrochloride] : 4.22

Documented pKd of N[C@@H](CS)C(=O)O [Cysteine, L-cysteine hydrochloride monohydrate] : 5.33

Documented pKd of N[C@H]1C(O)O[C@H](CO)[C@@H](O)[C@@H]1O (stereo partly drawn) [Glucosamine, D(+)-glucosamine hydrochloride] : 4.98

Documented pKd of N=C(N)NCCC[C@H](N)C(=O)O [Arginine, L-arginine monohydrochloride] : 5.70

Documented pKd of O=C(O)C[C@H](O)C(=O)O : 4.34

Documented pKd of O=C(O)/C=C/C(=O)O [Fumarate, sodium fumarate] : 5.00

Reference source: paper PMC8406319
